Origin of values: patent US20180036441A1

- study target: T1, MUC1 on HCT116/MUC1 cells (UniProt P15941 24-1255, limits assumed)
- T1 construct: whole, on cells; also called MUC1 overexpressed cell line
- T1 sequence (P15941 24-1255 limits assumed): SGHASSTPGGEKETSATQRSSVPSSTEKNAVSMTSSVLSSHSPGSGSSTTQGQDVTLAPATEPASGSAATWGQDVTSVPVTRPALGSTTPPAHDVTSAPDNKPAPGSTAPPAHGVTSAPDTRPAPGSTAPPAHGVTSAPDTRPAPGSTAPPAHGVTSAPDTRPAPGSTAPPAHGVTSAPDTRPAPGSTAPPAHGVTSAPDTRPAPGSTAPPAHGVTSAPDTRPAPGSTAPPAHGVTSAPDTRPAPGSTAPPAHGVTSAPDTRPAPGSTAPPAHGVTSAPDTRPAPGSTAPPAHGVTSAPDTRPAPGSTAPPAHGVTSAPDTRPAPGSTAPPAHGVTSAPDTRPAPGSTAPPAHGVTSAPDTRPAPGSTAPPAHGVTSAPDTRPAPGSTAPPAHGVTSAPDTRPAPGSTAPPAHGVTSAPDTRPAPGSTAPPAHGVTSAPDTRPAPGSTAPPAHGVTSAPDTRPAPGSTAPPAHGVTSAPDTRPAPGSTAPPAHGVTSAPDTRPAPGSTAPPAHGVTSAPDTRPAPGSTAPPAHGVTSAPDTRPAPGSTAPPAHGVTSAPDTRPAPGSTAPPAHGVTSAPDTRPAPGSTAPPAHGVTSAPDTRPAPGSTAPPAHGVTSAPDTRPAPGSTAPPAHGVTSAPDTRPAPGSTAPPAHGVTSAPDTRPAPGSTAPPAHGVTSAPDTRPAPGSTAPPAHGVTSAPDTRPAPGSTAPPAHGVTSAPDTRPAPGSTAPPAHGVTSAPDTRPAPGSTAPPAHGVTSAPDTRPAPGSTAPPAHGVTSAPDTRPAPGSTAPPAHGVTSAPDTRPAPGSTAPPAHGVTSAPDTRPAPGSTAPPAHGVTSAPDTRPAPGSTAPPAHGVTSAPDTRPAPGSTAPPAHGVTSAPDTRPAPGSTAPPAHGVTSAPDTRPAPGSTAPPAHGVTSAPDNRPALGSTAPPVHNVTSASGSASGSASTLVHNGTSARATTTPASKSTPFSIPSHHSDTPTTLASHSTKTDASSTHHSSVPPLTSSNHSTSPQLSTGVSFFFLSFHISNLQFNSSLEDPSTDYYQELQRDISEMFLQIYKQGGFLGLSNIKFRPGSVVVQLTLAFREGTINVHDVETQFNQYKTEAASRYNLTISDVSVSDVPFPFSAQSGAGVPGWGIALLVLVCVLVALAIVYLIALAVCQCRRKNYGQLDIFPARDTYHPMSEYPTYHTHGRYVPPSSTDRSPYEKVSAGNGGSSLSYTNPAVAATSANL
- procedure text: FACS titration, HCT116/MUC1 cells, antibody at 500 nM
- Description: To assess cell binding, 2×10⁵ HCT116/MUC1 cells per well were washed with PBS twice and incubated in 200 μl of serial dilutions of chimeric or humanized antibodies for 1 hour at room temperature. After washing 3 times with PBS, secondary antibody (2 μg/ml Alexa Flour®488 goat anti-human IgG) was added to cells and incubated for 30 minutes at room temperature. After washing with PBS, cells were analyzed by using FACSCalibur (BD Bioscience, San Jose, Calif.) and Flowjo software.
experimental readout: geometric mean
Numbers only.

VH2 + VL3 (antibody, V domains shown, Humanized IgG expressed in HEK293; also called humanized antibody VH2+VL3) VH: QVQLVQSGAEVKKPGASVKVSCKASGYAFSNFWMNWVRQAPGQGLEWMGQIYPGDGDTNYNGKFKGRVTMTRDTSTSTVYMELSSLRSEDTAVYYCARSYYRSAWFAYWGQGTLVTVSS VL: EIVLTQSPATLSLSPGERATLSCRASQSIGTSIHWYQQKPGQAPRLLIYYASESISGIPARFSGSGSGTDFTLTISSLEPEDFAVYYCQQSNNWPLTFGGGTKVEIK :: 178
VH5 + VL3 (antibody, V domains shown, Humanized IgG expressed in HEK293; also called humanized antibody VH5+VL3) VH: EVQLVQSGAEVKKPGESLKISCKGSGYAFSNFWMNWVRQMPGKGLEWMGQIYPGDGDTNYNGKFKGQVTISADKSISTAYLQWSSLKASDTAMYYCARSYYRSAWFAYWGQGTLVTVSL VL: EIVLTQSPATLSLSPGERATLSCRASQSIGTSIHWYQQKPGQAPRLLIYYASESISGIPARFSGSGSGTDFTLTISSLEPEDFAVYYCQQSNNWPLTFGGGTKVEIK :: 170

Proceed to the following item.
Entry VH4 + VL1 (antibody, V domains shown, Humanized IgG expressed in HEK293; also called humanized antibody VH4+VL1) VH: QVQLVQSGAEVKKPGATVKISCKVSGYAFSNFWMNWVQQAPGKGLEWMGQIYPGDGDTNYNGKFKGRVTITADTSTDTAYMELSSLRSEDTAVYYCARSYYRSAWFAYWGQGTLVTVSR VL: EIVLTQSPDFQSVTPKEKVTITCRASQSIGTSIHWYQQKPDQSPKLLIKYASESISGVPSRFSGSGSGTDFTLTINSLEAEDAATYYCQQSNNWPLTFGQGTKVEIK : reported geometric mean = ?
253
